Field: IC50. Provide a value for each of the compounds that follow.
- EXPERIMENTAL_SYSTEM: PI3Kδ (Homo sapiens, UniProt O00329)
- Sequence (O00329 whole entry): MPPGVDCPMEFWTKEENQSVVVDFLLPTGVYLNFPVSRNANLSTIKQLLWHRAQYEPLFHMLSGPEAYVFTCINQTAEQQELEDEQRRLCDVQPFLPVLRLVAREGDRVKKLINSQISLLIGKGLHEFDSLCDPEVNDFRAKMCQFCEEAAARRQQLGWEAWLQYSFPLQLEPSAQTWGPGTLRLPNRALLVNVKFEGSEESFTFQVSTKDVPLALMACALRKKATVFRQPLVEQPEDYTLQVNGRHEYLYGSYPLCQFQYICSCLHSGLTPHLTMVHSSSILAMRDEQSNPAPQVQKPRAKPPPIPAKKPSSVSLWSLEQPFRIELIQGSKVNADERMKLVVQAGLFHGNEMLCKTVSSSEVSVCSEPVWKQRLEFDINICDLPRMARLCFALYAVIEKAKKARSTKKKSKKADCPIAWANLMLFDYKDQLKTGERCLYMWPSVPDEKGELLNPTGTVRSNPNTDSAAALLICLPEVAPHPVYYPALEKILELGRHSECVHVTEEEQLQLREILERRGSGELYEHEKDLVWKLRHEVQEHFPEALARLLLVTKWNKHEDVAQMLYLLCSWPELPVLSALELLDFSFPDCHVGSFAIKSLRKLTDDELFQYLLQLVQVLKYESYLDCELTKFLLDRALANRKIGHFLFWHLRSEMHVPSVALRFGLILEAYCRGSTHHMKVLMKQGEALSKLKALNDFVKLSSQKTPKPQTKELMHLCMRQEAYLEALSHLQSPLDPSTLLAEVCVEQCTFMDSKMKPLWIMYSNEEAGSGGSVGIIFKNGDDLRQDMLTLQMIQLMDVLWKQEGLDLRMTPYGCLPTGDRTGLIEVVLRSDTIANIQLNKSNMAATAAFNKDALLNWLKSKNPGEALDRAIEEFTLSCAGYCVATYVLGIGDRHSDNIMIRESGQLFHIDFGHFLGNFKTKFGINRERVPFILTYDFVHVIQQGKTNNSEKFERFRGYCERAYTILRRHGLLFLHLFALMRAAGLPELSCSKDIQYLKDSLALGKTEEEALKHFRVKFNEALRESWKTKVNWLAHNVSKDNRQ
- Sequence (P27986 whole entry partner): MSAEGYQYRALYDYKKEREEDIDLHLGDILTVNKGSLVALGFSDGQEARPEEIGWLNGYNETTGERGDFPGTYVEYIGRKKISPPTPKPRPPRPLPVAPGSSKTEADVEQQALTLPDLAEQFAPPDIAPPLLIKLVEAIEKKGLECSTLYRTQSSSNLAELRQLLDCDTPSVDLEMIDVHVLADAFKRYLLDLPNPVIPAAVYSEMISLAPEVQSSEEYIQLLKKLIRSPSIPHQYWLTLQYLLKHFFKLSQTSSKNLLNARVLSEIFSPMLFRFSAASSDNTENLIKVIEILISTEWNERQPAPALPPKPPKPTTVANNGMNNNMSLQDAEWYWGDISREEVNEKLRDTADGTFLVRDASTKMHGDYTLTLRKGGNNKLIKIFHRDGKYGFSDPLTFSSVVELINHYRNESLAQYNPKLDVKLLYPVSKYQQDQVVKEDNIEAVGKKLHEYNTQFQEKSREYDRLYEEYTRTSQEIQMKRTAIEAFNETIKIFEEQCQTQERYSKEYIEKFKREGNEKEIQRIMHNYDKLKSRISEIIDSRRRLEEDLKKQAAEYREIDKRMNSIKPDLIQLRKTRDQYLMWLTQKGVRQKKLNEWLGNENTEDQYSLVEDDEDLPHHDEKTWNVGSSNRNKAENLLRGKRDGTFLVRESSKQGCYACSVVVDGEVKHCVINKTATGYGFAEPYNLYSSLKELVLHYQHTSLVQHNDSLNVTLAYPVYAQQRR
- METHOD_DESCRIPTION: In vitro determination of the PI3K enzyme inhibitory activity in the cell free assay (ADP-Glo Kinase Assay), PI3Kδ
- MEASUREMENT_CONTEXT: ATP 80 μM, read-out: PI3K delta inhibition

Here's what some known entries look like.
{"COMPOUND": "CC(c1cc2ccccn2c1-c1ccc(OCCN(C)C)nn1)n1nc(-c2cc(O)cc(F)c2)c2c(N)ncnc21 (stereo not drawn)", "RESULT_TYPE": "IC50", "ASSAY_VALUE": "< 10 nM"}
{"COMPOUND": "COc1cc(F)cc(-c2nn(C(C)c3cc4ccccn4c3-c3ccccn3)c3ncnc(N)c23)c1 (stereo not drawn)", "RESULT_TYPE": "IC50", "ASSAY_VALUE": "10 to 1000 nM"}
{"COMPOUND": "C[C@H](c1c(C#N)c2ccccn2c1-c1cccc(CN(C)C)c1)n1nc(-c2cc(O)cc(F)c2)c2c(N)ncnc21 (single isomer, unassigned) [Example 127b]", "RESULT_TYPE": "IC50", "ASSAY_VALUE": "< 10 nM"}

Hi team, please reply with IC50 for each item in this list.
1. CC(c1cc2ccccn2c1-c1ccc(=O)n(CCN2CCN(C)CC2)n1)n1nc(-c2cc(O)cc(F)c2)c2c(N)ncnc21 (stereo not drawn)
2. Cc1cc(-c2c(C(C)n3nc(-c4cncc(O)c4)c4c(N)ncnc43)cc3ccccn23)ccn1 (stereo not drawn)

Response given:
1: 10 to 1000 nM; 2: < 10 nM

Hi team, please reply with IC50 for each item in this list.
1. CC(c1cc2ccccn2c1-c1ccn(CCN2CCOCC2)c(=O)c1)n1nc(-c2cncc(O)c2)c2c(N)ncnc21 (stereo not drawn)
2. CC(c1cc2ccccn2c1CN1CCC2(CCN(C)CC2)CC1)n1nc(-c2cc(O)cc(F)c2)c2c(N)ncnc21 (stereo not drawn)
3. CC(Nc1ncnc(N)c1C#N)c1cc2ccccn2c1-c1cnccn1 (stereo not drawn)
4. C[C@H](c1cc2ccccn2c1-c1ccc(CN(CCO)CCO)cn1)n1nc(-c2cc(O)cc(F)c2)c2c(N)ncnc21 (single isomer, unassigned) [Example 117a]
5. C[C@H](c1cc2ccccn2c1-c1ccn(CCN2CCOCC2)c(=O)c1)n1nc(-c2cc(O)cc(F)c2)c2c(N)ncnc21 (single isomer, unassigned) [Example 121b]
6. CC(c1cc2ccccn2c1-c1ccc(OC2CCN(C)CC2)nn1)n1nc(-c2cc(O)cc(F)c2)c2c(N)ncnc21 (stereo not drawn)
7. CC(Nc1ncnc(N)c1C#N)c1cc2ccccn2c1C1=CCOCC1 (stereo not drawn)
8. Nc1ncnc2c1ncn2Cc1cc2ccccn2c1-c1ccccc1F

Response given:
["< 10 nM", "< 10 nM", "10 to 1000 nM", "< 10 nM", "< 10 nM", "10 to 1000 nM", "10 to 1000 nM", "> 1000 nM"]
